Data credit: patent US9187472B2

Target: NAMPT (human, recombinant, C-terminally His-tagged) (Homo sapiens)
Sequence (P43490 whole entry): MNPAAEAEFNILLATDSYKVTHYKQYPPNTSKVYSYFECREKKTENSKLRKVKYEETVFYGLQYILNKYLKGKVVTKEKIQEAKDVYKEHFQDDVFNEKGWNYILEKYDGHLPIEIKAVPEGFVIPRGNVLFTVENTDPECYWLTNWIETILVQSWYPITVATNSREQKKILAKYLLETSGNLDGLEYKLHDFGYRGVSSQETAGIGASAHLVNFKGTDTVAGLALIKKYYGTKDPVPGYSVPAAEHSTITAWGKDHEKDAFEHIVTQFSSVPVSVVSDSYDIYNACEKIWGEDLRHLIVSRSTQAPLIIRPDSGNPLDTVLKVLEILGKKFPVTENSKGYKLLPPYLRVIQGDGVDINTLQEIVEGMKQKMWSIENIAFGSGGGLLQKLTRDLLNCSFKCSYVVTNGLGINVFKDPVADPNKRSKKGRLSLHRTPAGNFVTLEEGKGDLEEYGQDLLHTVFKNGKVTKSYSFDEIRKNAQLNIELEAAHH
Test: Time-Resolved Fluorescence Resonance Energy Transfer (TR-FRET) Binding Assay of NAMPT
Settings: without substrates; 6.8 nM NAMPT, 200 nM probe, 3 hours equilibration
Readout type: pIC50
Please express pIC50 as -log10 of the molar concentration.

Consider the reported pIC50 for these molecules:
>  <Molecule>
O=C(NCc1ccn2ccnc2c1)Nc1ccc(OC2CCN(C(=O)c3cc(F)cc(F)c3)CC2)cc1

>  <Readout type>
pIC50

>  <Number>
6.31

$$$$
>  <Molecule>
O=C(Nc1ccc(C2=CCN(C(=O)C3CCCO3)CC2)cc1)Nc1ccc2nccn2c1 (centres unmarked)

>  <Readout type>
pIC50

>  <Number>
6.43

$$$$
>  <Molecule>
O=C(NCc1ccn2ccnc2c1)c1ccc(C2CN(C(=O)c3ccccc3)C2)cc1

>  <Readout type>
pIC50

>  <Number>
7.09

$$$$

For CC(C)OC(=O)N1CCC(c2ccc(C(=O)NCc3ccn4ccnc4c3)s2)CC1 , what is its reported pIC50?
7.15

For O=C(NCc1ccn2ccnc2c1)c1ccc(Oc2ccccc2)cc1 , what is its reported pIC50?
5.91

---

Molecular target: NAMPT (Homo sapiens, UniProt P43490)
Sequence (P43490 whole entry): as above
Assay: TR-FRET Binding Assay of NAMPT with PRPP
Details: with 200 μM PRPP and 2.5 mM ATP; 2 nM NAMPT, 2 nM probe, 16 hours equilibration
Readout type: pIC50
Please express pIC50 as -log10 of the molar concentration.

>  <Molecule>
O=C(NCc1ccn2ccnc2c1)c1ccc(C2CCN(C(=O)c3cccc(F)c3)C2)s1 (centres unmarked) [Example 762]

>  <Number>
9.30

$$$$
>  <Molecule>
CC1(C(=O)N2CCC(c3ccc(C(=O)NCc4ccn5ccnc5c4)cc3)CC2)CC1 [Example 538]

>  <Number>
9.29

$$$$
>  <Molecule>
CC(C)C(=O)N1CC[C@H](Oc2ccc(C(=O)NCc3ccn4ccnc4c3)cc2)C1 [Example 351]

>  <Number>
9.10

$$$$
>  <Molecule>
CCc1c(-c2ccc(C(=O)NCc3ccn4ccnc4c3)s2)cnn1CC1CCCCC1 [Example 272]

>  <Number>
9.38

$$$$
>  <Molecule>
O=C(NCc1ccn2ccnc2c1)c1cnc(N2CCN(C(=O)c3ccccc3)CC2)s1 [Example 355]

>  <Number>
9.77

$$$$
>  <Molecule>
O=C(NCc1ccn2ccnc2c1)c1ccc(-c2cnn(CCN3CCNCC3)c2)s1 [Example 809]

>  <Number>
9.20

$$$$

# evaluate next
For O=C(NCc1ccn2ccnc2c1)c1ccc(-c2cnn(CC3COCCO3)c2)s1 (centres unmarked) [Example 316] , what is its reported pIC50?
9.77

---

// values below are pIC50; system is NAMPT (Homo sapiens, UniProt P43490)
Please express pIC50 as -log10 of the molar concentration.

>  <Molecule>
O=C(NCc1cn2ccnc2cn1)c1ccc(C2CCN(C(=O)c3ccccc3F)CC2)cc1

>  <pIC50>
9.05

$$$$
>  <Molecule>
CC(C)C(=O)N1CCC(c2ccc(C(=O)NCc3ccn4ccnc4c3)s2)CC1

>  <pIC50>
9.77

$$$$
>  <Molecule>
O=C(NCc1ccn2ccnc2c1)c1ccc(N2CC(CO)OC2=O)s1 (centres unmarked)

>  <pIC50>
9.48

$$$$
>  <Molecule>
O=C(NCc1ccn2ccnc2c1)c1ccc(C2CCN(S(=O)(=O)C3CC3)C2)cc1 (centres unmarked)

>  <pIC50>
9.10

$$$$
>  <Molecule>
O=C(NCc1ccn2ccnc2c1)c1ccc(O[C@H]2CCN(C(=O)CC3CC3)C2)cc1

>  <pIC50>
9.18

$$$$
>  <Molecule>
O=C(NCc1ccc2nccn2c1)c1ccc(-c2cnn(CC3CCCO3)c2)s1 (centres unmarked)

>  <pIC50>
9.04

$$$$
>  <Molecule>
CC(=O)N1CCC(c2ccc(NC(=O)NCc3ccn4ccnc4c3)cc2)C1 (centres unmarked)

>  <pIC50>
9.54

$$$$
>  <Molecule>
O=C(NCc1ccc2nccn2c1)c1ccc(OC2CCN(C(=O)CC3CCOCC3)CC2)cc1

>  <pIC50>
8.60

$$$$
>  <Molecule>
O=C(NCc1ccn2ccnc2c1)c1ccc(-c2cnn(CC3CCCCO3)c2)o1 (centres unmarked)

>  <pIC50>
9.63

$$$$
>  <Molecule>
CC(C)C[C@@H](NC(=O)CC1CCOC1)c1ccc(C(=O)NCc2ccn3ccnc3c2)s1 (some centres unmarked)

>  <pIC50>
8.89

$$$$

# evaluate next
Request body: readout pIC50, system NAMPT (Homo sapiens, UniProt P43490), query O=C(NCc1ccn2ccnc2c1)c1ccc(-c2cnn(CC3CCCS(=O)(=O)C3)c2)s1 (centres unmarked) . Return the value.
9.77
